Experiment: Open-label clinical pharmacokinetic study of oral XBD173 and etifoxine in healthy volunteers (plasma LC-MSMS)
Type: in vivo, human
Details: human, plasma, po, 90 mg, 90mg XBD173 single oral dose; 180 mins; participant 4
Measure: concentration at 180 min (ng/mL)
State just the number; it will be interpreted in ng/mL.

Task: Return reported concentration at 180 min; argument: `CCN(Cc1ccccc1)C(=O)Cn1c(=O)n(C)c2cnc(-c3ccccc3)nc21`
Result: 171

---

Assay: Open-label clinical pharmacokinetic study of oral XBD173 and etifoxine in healthy volunteers (plasma LC-MSMS)
Assay type: in vivo, human
Settings: human, plasma, po, 50 mg, 50 mg etifoxine single oral dose; participant 2
Measure: Cmax (ng/mL)
State just the number; it will be interpreted in ng/mL.

Task: Return reported Cmax; argument: CCNC1=Nc2ccc(Cl)cc2C(C)(c2ccccc2)O1 (stereo not shown)
Result: 33

Ref: paper PMC9545781
